molecular target: G/T mismatch-specific thymine DNA glycosylase (Homo sapiens) (UniProt Q13569); details: Compound Concentration 10.0 uM, Hit No;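 note: human TDG cleavage of quenched duplex DNA oligonucleotides coupled to APE1, strand release read as fluorescence at 594 nm, inhibition of TDG activity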
Sequence (Q13569 whole entry): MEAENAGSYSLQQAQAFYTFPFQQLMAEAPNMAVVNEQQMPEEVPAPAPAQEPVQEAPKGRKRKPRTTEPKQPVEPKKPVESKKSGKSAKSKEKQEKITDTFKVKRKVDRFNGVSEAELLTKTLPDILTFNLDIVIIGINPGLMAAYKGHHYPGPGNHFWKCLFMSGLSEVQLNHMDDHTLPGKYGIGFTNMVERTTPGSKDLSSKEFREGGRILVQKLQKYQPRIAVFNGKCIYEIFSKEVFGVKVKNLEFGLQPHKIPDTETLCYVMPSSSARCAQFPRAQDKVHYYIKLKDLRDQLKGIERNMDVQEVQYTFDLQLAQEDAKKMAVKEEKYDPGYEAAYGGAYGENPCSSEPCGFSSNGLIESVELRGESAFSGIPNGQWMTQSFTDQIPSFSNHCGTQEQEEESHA
Description: Inhibition of TDG by quantifying inhibition of TDG-mediated cleavage and dissociation of quenched duplex DNA oligonucleotides, measured as fluorescence at 594 nm. To generate a functional strand incision and increase turn-over this assay is coupled to APE1.
inhibition below 40% gives 0; inhibition at or above it gives 1.

Study these solved cases before continuing.
Exam item: Answer whether inhibition of CC(=O)C1=C(C)N(c2cccc(C(F)(F)F)c2)C(=O)N[C@@H]1c1ccc(C#N)nc1 is greater than or equal to 40%.
Marked response: 1

Exam item: Answer whether inhibition of CC1(C)Cc2c(CN3CCC4(CC3)CCN(C(=O)c3ccc(N)cn3)CC4)cccc2O1 is greater than or equal to 40%.
Marked response: 0

Exam item: Answer whether inhibition of Cn1cc(-c2ccc3occ(-c4cccc(-c5ccncc5)c4)c3n2)cn1 is greater than or equal to 40%.
Marked response: 1

Exam item: Answer whether inhibition of CC(C)Cc1ccc([C@@H](C)C(=O)NS(C)(=O)=O)cc1 is greater than or equal to 40%.
Marked response: 0

Exam item: Answer whether inhibition of CCCCN(CCCC)C(=O)CN1C[C@@H](c2ccc3c(c2)OCO3)[C@H](C(=O)O)[C@H]1c1ccc(OC)cc1 is greater than or equal to 40%.
Marked response: 0

Further cases:
Exam item: Answer whether inhibition of CC1(C)CCC(C)(C)c2cc(C(=O)Nc3ccc(C(=O)O)cc3)ccc21 is greater than or equal to 40%.
Marked response: 1

Exam item: Answer whether inhibition of COCCn1c(C)c(C)s/c1=N\C(=O)C1C(C)(C)C1(C)C is greater than or equal to 40%.
Marked response: 0

Exam item: Answer whether inhibition of CC[C@H]1OC(=O)[C@H](C)[C@@H](O[C@H]2C[C@@](C)(OC)[C@@H](O)[C@H](C)O2)[C@H](C)[C@@H](O[C@@H]2O[C@H](C)C[C@H](N(C)C)[C@H]2O)[C@@]2(C)CC(C)=C(O2)[C@H](C)[C@@H](O)[C@]1(C)O is greater than or equal to 40%.
Marked response: 0

Exam item: Answer whether inhibition of CCc1cc2c(cc1CC)CC(NC[C@H](O)c1ccc(O)c3[nH]c(=O)ccc13)C2 is greater than or equal to 40%.
Marked response: 0

Exam item: Answer whether inhibition of CN1CCN2c3ncccc3Cc3ccccc3C2C1 (centres undefined) is greater than or equal to 40%.
Marked response: 0

Exam item: Answer whether inhibition of CCCn1c(=O)c2[nH]c(C3CCCC3)nc2n(CCC)c1=O is greater than or equal to 40%.
Marked response: 0

Exam item: Answer whether inhibition of CC(C)c1cc(Oc2c(Cl)cc(-n3nc(C#N)c(=O)[nH]c3=O)cc2Cl)n[nH]c1=O is greater than or equal to 40%.
Marked response: 1

Exam item: Answer whether inhibition of COc1cc2c(cc1CC=C(C)C)C(=O)C[C@@H](c1ccc(O)cc1)O2 is greater than or equal to 40%.
Marked response: 1

Exam item: Answer whether inhibition of O=C(O)[C@H]1O[C@H](OP(=O)(O)OP(=O)(O)OC[C@H]2O[C@@H](n3ccc(=O)[nH]c3=O)[C@H](O)[C@@H]2O)[C@H](O)[C@@H](O)[C@@H]1O is greater than or equal to 40%.
Marked response: 0

Exam item: Answer whether inhibition of CN(C)C(=O)N[C@H]1CC[C@H](CCN2CCN(c3cccc(Cl)c3Cl)CC2)CC1 is greater than or equal to 40%.
Marked response: 0

Exam item: Answer whether inhibition of Cc1c(C2=CCN(C(=O)N(C)C(C)C)CC2)nnn1-c1cccnc1F is greater than or equal to 40%.
Marked response: 0

Exam item: Answer whether inhibition of CN1CC(=O)N=C1NC(=O)Nc1cccc(Cl)c1 is greater than or equal to 40%.
Marked response: 0

Exam item: Answer whether inhibition of CC(C)(O)CNc1ncc(-c2ccnc(Nc3ccnc(Cl)c3)n2)c(CC2CC2)n1 is greater than or equal to 40%.
Marked response: 1

Exam item: Answer whether inhibition of COc1ccc2[nH]c(I)c(CCNC(C)=O)c2c1 is greater than or equal to 40%.
Marked response: 0
